# MEASUREMENT_DESCRIPTION: Spectrophotometric titration, acid dissociation constants
# Format: physicochemical
# CONDITION_LABEL: 0.1 M KCl electrolyte solution, intrinsic pKa for THP ligands (hydroxyl group), 25 °C, 0.1 M KCl; read-out: pKa2
ASSAY_ENDPOINT: pKa

STRUCTURE_STRING | ENDPOINT_RESULT
CC(=O)NC(CCC(=O)NCc1[nH]c(C)cc(=O)c1O)(CCC(=O)NCc1[nH]c(C)cc(=O)c1O)CCC(=O)NCc1[nH]c(C)cc(=O)c1O | 9.4
